# Test system: SF-268 CNS
# METHOD DESCRIPTION: NCI-60 one-dose screen, 48 h
# CONDITION: 10 µM
# Experimental: Cells are grown in 96 well plates and exposed to the test compound for 48 hours. Compounds are tested at a single concentration, which is 10^-5 M for most compounds. The reported endpoint is percent growth (GI% or GIPRCNT), where numbers from 0 - 100% represent growth inhibition, and numbers from -100% - 0 represent cell death. For example, a value of 40 represents 60% growth inhibition. A value of 0 means no net growth occurred over the course of the experiment. […]
About 83,000 compounds went through this panel and 20% of them were active in at least one assay; those are over-represented in the sample as a whole. Activity calls are given as the source filed them. The calls were made as follows: active = growth percent below 10; inactive = the rest.
Permitted responses: active, inactive

INPUT: Name the outcome recorded for `Nc1nccc(OCCO)n1` in the assay.
OUTPUT: inactive

INPUT: Name the outcome recorded for `COC(=O)c1cc2oc(/C=C3/SC(=S)N(N)C3=O)cc2n1Cc1ccccc1` in the assay.
OUTPUT: inactive

INPUT: Name the outcome recorded for `O=C(O)COc1c(Cl)cc([N+](=O)[O-])cc1Cl` in the assay.
OUTPUT: inactive

INPUT: Name the outcome recorded for CC(=O)C1CCC2C3CC=C4CC(SC(=N)N)CCC4(C)C3CCC12C (stereo unspecified) in the assay.
OUTPUT: inactive

INPUT: Name the outcome recorded for `Clc1nc2ccc(Br)cc2cc1-c1nc2ccccc2[nH]1` in the assay.
OUTPUT: inactive

INPUT: Name the outcome recorded for C/C=C/C1=CN2C(=O)c3cc(OC4OC(C)C(NC)C(C)(O)C4O)c(C)c(O)c3N=C[C@@H]2C1 (stereo partly specified) in the assay.
OUTPUT: active

INPUT: Name the outcome recorded for `CCCc1cn(CC(=O)Nc2nc3ccccc3s2)nn1` in the assay.
OUTPUT: inactive

INPUT: Name the outcome recorded for `O=C(CCCCNC(=O)c1nc(-c2ccccc2)n(-c2ccccc2)n1)NO` in the assay.
OUTPUT: inactive

INPUT: Name the outcome recorded for CCCCN1C(=O)CC(SC2CC(=O)N(CCCC)C2=O)C1=O (stereo unspecified) in the assay.
OUTPUT: inactive

INPUT: Name the outcome recorded for CCN1C(=O)CC(SC2CC(=O)N(CC)C2=O)C1=O (stereo unspecified) in the assay.
OUTPUT: inactive

INPUT: Name the outcome recorded for `CC(=O)Nc1ccc(CC[C@H]2CCC/C=C/[C@@H]3C[C@H](O)C[C@H]3[C@H](O)/C=C/C(=O)O2)cc1` in the assay.
OUTPUT: inactive

---

# Test system: SF-268 CNS
# METHOD DESCRIPTION: NCI-60 one-dose screen, 48 h
# CONDITION: 10 µM
This is part of a sample that, as a whole, favours compounds with a hit. Of some 83,000 tested, about 20% had one in any assay. Calls of active or inactive are those of the source. How the source made its calls: active means growth percent below 10; inactive means the rest.
Permitted responses: active, inactive

INPUT: Name the outcome recorded for `Cc1cc(NC(=O)c2ccc(C)c(Nc3nccc(-c4cccnc4)n3)c2)cc(-n2cnc(C)c2)c1` in the assay.
OUTPUT: inactive

INPUT: Name the outcome recorded for `O=[N+]([O-])c1cccc(/C=N/NC(=S)NC23CC4CC(CC(C4)C2)C3)c1` in the assay.
OUTPUT: inactive

INPUT: Name the outcome recorded for `O=C1/C(=C/c2ccc([N+](=O)[O-])s2)Oc2cc(Cl)ccc21` in the assay.
OUTPUT: active

INPUT: Name the outcome recorded for `CCOC(=O)c1sc2ncnc(Nc3ccc(NC(=O)Nc4ccc(Cl)cc4)cc3)c2c1C` in the assay.
OUTPUT: inactive

INPUT: Name the outcome recorded for `CCCCC1(O)CCCCC1` in the assay.
OUTPUT: inactive

INPUT: Name the outcome recorded for `COc1ccc(-c2nc(-c3nc4ccc(C)cc4[nH]3)cc3c2[nH]c2ccccc23)cc1` in the assay.
OUTPUT: inactive

INPUT: Name the outcome recorded for `Cn1c2ccccc2c2c3[nH][nH]c(=O)c3c3c4ccccc4[nH]c3c21` in the assay.
OUTPUT: inactive

INPUT: Name the outcome recorded for `O=C(CCCSc1nc(-c2ccccc2)cc(-c2ccc(Cl)cc2)n1)NO` in the assay.
OUTPUT: inactive

INPUT: Name the outcome recorded for `CCN(CC)CCNc1ccc(C)c2sc3cc(Cl)ccc3c(=O)c12` in the assay.
OUTPUT: inactive

INPUT: Name the outcome recorded for `O=C(O)c1ccc(-n2cc(CNc3ccc(Oc4ccccc4)cc3)c(-c3ccccc3)n2)cc1` in the assay.
OUTPUT: inactive

INPUT: Name the outcome recorded for CCN(CC)CCCC(C)N=C(C1=C(C(=NC(C)CCCN(CC)CC)c2cccc(OC)c2)C(=O)NC1=O)c1cccc(OC)c1 (configuration not stated) in the assay.
OUTPUT: active

INPUT: Name the outcome recorded for `CNS(=O)(=O)Oc1ccc(-c2sc3cc(OS(=O)(=O)NC)ccc3c2C(=O)c2ccc(OCCN3CCCCC3)cc2)cc1` in the assay.
OUTPUT: inactive

INPUT: Name the outcome recorded for `CC(=O)N[C@H](C(=O)N[C@@H](CCCNC(=N)N)C(=O)N[C@@H](CCCCN)C(=O)N[C@@H](CCCNC(=N)N)C(=O)N[C@]1(C)CCC/C=C\CCC[C@@](C)(C(=O)N[C@@H](CC(C)C)C(=O)N[C@@H](CC(C)C)C(=O)N[C@@H](CCC(N)=O)C(=O)N[C@@H](CCC(=O)O)C(=O)N[C@@H](CCCNC(=N)N)C(=O)N[C@@H](CCC(=O)O)C(=O)N[C@@H](CC(C)C)C(=O)N[C@H](C(=O)N[C@@H](CCC(=O)O)C(N)=O)C(C)C)NC(=O)[C@H](CCCNC(=N)N)NC(=O)[C@H](CC(C)C)NC1=O)C(C)C` in the assay.
OUTPUT: inactive

INPUT: Name the outcome recorded for `O=C(N/N=C/c1ccc([N+](=O)[O-])cc1)c1ccccc1Nc1cccc(C(F)(F)F)c1` in the assay.
OUTPUT: inactive

INPUT: Name the outcome recorded for NC1=NC(c2ccc(Cl)cc2)C2=C(N1)/C(=C/c1ccc(Cl)cc1)CCC2 (configuration not stated) in the assay.
OUTPUT: inactive

INPUT: Name the outcome recorded for `Cc1c2cnccc2c(C)c2c1c1cc(O)ccc1n2C(C)C` in the assay.
OUTPUT: active

INPUT: Name the outcome recorded for CCC1NC(=O)c2cc(S(N)(=O)=O)c(Cl)cc2N1 (configuration not stated) in the assay.
OUTPUT: inactive

INPUT: Name the outcome recorded for `O=C1c2c(c(=O)[nH]c3ccccc23)CCN1Cc1ccccc1` in the assay.
OUTPUT: inactive

INPUT: Name the outcome recorded for `O=C(COc1cccc(/C=C2\CSc3ccccc3C2=O)c1)c1ccc(Cl)cc1` in the assay.
OUTPUT: inactive

INPUT: Name the outcome recorded for `C=CCSC(CC)(CC)C(=O)NC` in the assay.
OUTPUT: inactive

INPUT: Name the outcome recorded for `O=C1CCn2c1c(O)c1ccccc1c2=O` in the assay.
OUTPUT: inactive

INPUT: Name the outcome recorded for CC(=O)OC1C=CC(OC(C)=O)O1 (configuration not stated) in the assay.
OUTPUT: inactive

INPUT: Name the outcome recorded for `CCOC(=O)c1cc(C(=O)c2cc(OC)c(OC)c(OC)c2)n2ccc(-c3cc[n+](CC(=O)c4cc(OC)c(OC)c(OC)c4)cc3)cc12` in the assay.
OUTPUT: active

INPUT: Name the outcome recorded for `O=C(CCCCCCC(=O)Nc1ccccc1)NO` in the assay.
OUTPUT: inactive

INPUT: Name the outcome recorded for `COc1ccc(-c2nn(-c3cccc(Cl)c3)cc2-c2c(C#N)c(N)n(N)c(=O)c2C#N)cc1` in the assay.
OUTPUT: inactive

INPUT: Name the outcome recorded for `CCOS(=O)(=O)c1c(C(C)C)cc(C(C)C)cc1C(C)C` in the assay.
OUTPUT: inactive

INPUT: Name the outcome recorded for `O=C(CCl)Nc1ccc(Cc2ccc(NC(=O)CCl)cc2)cc1` in the assay.
OUTPUT: inactive

INPUT: Name the outcome recorded for `COc1ccc2nc3cc(Cl)ccc3c(NCCCNCCO)c2c1` in the assay.
OUTPUT: active

INPUT: Name the outcome recorded for `O=C(Nc1ccc(NS(=O)(=O)c2ccc(F)cc2)cc1)C12CC3CC(CC(C3)C1)C2` in the assay.
OUTPUT: inactive

INPUT: Name the outcome recorded for `Cc1nc2n(c(=O)c1CCN1CCC(c3noc4cc(F)ccc34)CC1)CCC[C@@H]2O` in the assay.
OUTPUT: inactive

INPUT: Name the outcome recorded for COc1ccc(/C(=N\N)C(=O)c2ccccc2)cc1 (tested in a mixture with another compound) in the assay.
OUTPUT: inactive

INPUT: Name the outcome recorded for `CC(=O)[C@H]1CC[C@]2(C)[C@@H]1CC[C@@H]1[C@@]3(C)CC(CCC#N)(CCC#N)C(=O)C(C)(C)[C@@H]3CC[C@]12C` in the assay.
OUTPUT: inactive
